These entries and their values trace back to patent US9586963B2.

# target: Rev-Erb alpha (Homo sapiens)
# assay method text: M2H (mammalian two-hybrid) cellular activation assay of Rev-Erb alpha
# Assay type: cell-based
# cond: M2H assay, HEK293 cells, Gal4-Rev-Erb alpha / VP16-NCoR, luciferase reporter
quantity: EC50

{"compound": "COc1cccc(-c2ccc(C(F)(F)F)cc2Oc2ccc3nnc(Cl)n3n2)c1 [Cpd.4-71]", "recorded result": "100 to 1000 nM"}
{"compound": "COc1ccc(-c2cccc(F)c2)c(Oc2ccc3nnc(Cl)n3n2)c1 [Cpd.4-112]", "recorded result": "< 100 nM"}
{"compound": "CS(=O)(=O)Nc1ccc(Oc2ccc3nnc(Cl)n3n2)c(-c2ccccc2)c1 [Cpd.4-173]", "recorded result": "1000 to 6000 nM"}
{"compound": "COc1ncc(C)cc1-c1ccc(C(F)(F)F)cc1Oc1cc(C)c2nnc(Cl)n2n1 [Cpd.5-27]", "recorded result": "1000 to 6000 nM"}
{"compound": "Cc1cccc(-c2ccccc2Oc2ccc3nnc(Cl)n3n2)c1 [Cpd.4-132]", "recorded result": "100 to 1000 nM"}

**Query** Give the reported value of EC50 for this record: COC(=O)c1cccc(-c2cc(F)ccc2Oc2ccc3nnc(Cl)n3n2)c1 [Cpd.4-75]
**Result** 1000 to 6000 nM

**Query** Give the reported value of EC50 for this record: Clc1ccc(Oc2ccc3nnc(Cl)n3n2)c(-c2ccccc2)c1 [Cpd.4-35]
**Result** 100 to 1000 nM

###

# target: Rev-Erb alpha (Homo sapiens, UniProt P20393)
# Sequence (P20393 284-614 limits assumed): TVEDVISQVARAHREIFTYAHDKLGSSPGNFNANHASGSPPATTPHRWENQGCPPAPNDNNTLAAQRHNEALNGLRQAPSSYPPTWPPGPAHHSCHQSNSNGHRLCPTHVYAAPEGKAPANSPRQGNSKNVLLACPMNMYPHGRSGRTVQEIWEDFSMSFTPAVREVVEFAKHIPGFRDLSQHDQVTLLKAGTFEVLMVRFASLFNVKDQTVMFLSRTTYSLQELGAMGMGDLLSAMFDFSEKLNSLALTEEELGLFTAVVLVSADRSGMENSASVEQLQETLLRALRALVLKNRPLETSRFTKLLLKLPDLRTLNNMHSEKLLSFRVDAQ
# assay method text: M2H (mammalian two-hybrid) cellular activation assay of Rev-Erb alpha
# Assay type: cell-based
# cond: M2H assay, HEK293 cells, Gal4-Rev-Erb alpha / VP16-NCoR, luciferase reporter
pEC50: −log10 of the molar value.
The molecules listed here are annotated with their pEC50.

// solved cases for pEC50 follow
{"molecule": "Clc1nnc2ccc(Oc3ccc(CN4CCOCC4)cc3-c3ccccc3)nn12 [Cpd.4-62]", "recorded result": "5.22 to 6.00"}
{"molecule": "FC(F)(F)c1ccc(-c2cncnc2)c(Oc2nn3cnnc3c3ccccc23)c1 [Cpd.5-64]", "recorded result": "5.22 to 6.00"}
{"molecule": "FC(F)(F)c1ccc(-c2cncnc2)c(Oc2nn3c(Cl)nnc3c3ccccc23)c1 [Cpd.5-22]", "recorded result": "6.00 to 7.00"}
{"molecule": "COc1ccc(-c2ccc(F)cc2)c(Oc2ccc3nnc(Cl)n3n2)c1 [Cpd.4-34]", "recorded result": "6.00 to 7.00"}
{"molecule": "COc1ncc(-c2ccc(C(F)(F)F)cc2Oc2ccc3nnc(Cl)n3n2)cn1 [Cpd.4-127]", "recorded result": "5.22 to 6.00"}

**Query** Give the reported value of pEC50 for this record: Fc1ccc(-c2ccc(C(F)(F)F)cc2Oc2ccc3nnc(Cl)n3n2)cn1 [Cpd.4-87]
**Result** 5.22 to 6.00

**Query** Give the reported value of pEC50 for this record: Clc1nnc2ccc(Cc3ccccc3-c3ccccc3)nn12 [Cpd.4-9]
**Result** 5.22 to 6.00

**Query** Give the reported value of pEC50 for this record: FC(F)(F)c1ccc(-c2ccccc2)c(Oc2ccc3nnc(C(F)(F)F)n3n2)c1 [Cpd.4-38]
**Result** 6.00 to 7.00

**Query** Give the reported value of pEC50 for this record: FC(F)(F)c1cccc(Oc2ccc3nnc(Cl)n3n2)c1-c1cccnc1 [Cpd.4-129]
**Result** 5.22 to 6.00
